# Tested on: HepG2 cells
# protocol-details: Cytotoxicity in HepG2 cells (intracellular ATP, ATPlite, 48 h)
# Type: cell-based, human
# assay-setup: HepG2 cells; IC50 per ratio column head; unit inferred
pIC50: −log10 of the molar value.
quantity: pIC50

Incoming: // pIC50 lookup, key: Cc1cc(NCCCCCCNc2cc(C)nc3c(C)cccc23)c2cccc(C)c2n1
Outgoing: < 4.60

Incoming: // pIC50 lookup, key: Cc1nn(CC(C)C)c2sc(C(=O)N3CCN(S(=O)(=O)c4ccc(C#N)cc4)CC3)cc12
Outgoing: < 4.60

Incoming: // pIC50 lookup, key: CCOc1c(CCNCCCCNCCc2ccc3ccccc3c2OCC)ccc2ccccc12
Outgoing: > 5.81

Incoming: // pIC50 lookup, key: CCn1c(Sc2ccc([N+](=O)[O-])c(C#N)c2)nnc1-c1cccc(Cl)c1
Outgoing: < 4.60

Incoming: // pIC50 lookup, key: Nc1ncc(-c2ccc3nccc(-c4ccncc4)c3c2)cc1S(=O)(=O)N1CCCCC1
Outgoing: < 4.60

Incoming: // pIC50 lookup, key: COc1cc2c(cc1CCNCCCCNCCc1cc3c(cc1OC)CCCC3)CCCC2
Outgoing: > 5.81

###

# Tested on: P. falciparum stage V gametocytes
# protocol-details: Gametocytocidal ATP bioluminescence assay (single point 5 μM and 1 μM, dose-response)
# Type: cell-based, Plasmodium falciparum
# assay-setup: P. falciparum gametocytes, 5 μM single concentration, 48 h, decrease of ATP level (S1 Table)
quantity: % Inhibition (%)
Answer in %, number only, no unit symbol.

Incoming: // % Inhibition lookup, key: CN(CC(=O)Nc1ccc(F)c(F)c1F)c1ncnc2sc(-c3ccccc3)cc12
Outgoing: 23

Incoming: // % Inhibition lookup, key: COc1cc(Cc2cnc(N)nc2N)c2c(c1OC)OC(C)(C)C=C2
Outgoing: -2.79

Incoming: // % Inhibition lookup, key: O=C1C(c2ccccc2)=C(Nc2cccc(OC(F)(F)C(F)F)c2)c2ccccc21
Outgoing: 66

Incoming: // % Inhibition lookup, key: Nc1ccnc2ccc(NC(=O)CCCCCc3ccccc3)cc12
Outgoing: 2

Incoming: // % Inhibition lookup, key: COc1cc(Cc2cnc(N)nc2N)cc(OCCCC#N)c1OC
Outgoing: -4.21

Incoming: // % Inhibition lookup, key: Nc1nc(N)c2c(ccc3ccccc32)n1
Outgoing: 19

Incoming: // % Inhibition lookup, key: COC(=O)CCCCOc1cc(Cc2cnc(N)nc2N)cc(OC)c1OC
Outgoing: 2

Incoming: // % Inhibition lookup, key: CC(C)(C)c1ccc(NC(=O)c2cccc(CN3CCCN(Cc4ccc(F)cc4)CC3)c2)cc1
Outgoing: -30

Incoming: // % Inhibition lookup, key: CO/C(=C\C=C\c1cc2cc(Cl)c(Cl)cc2[nH]1)C(=O)NC1CC2CCCC(C1)N2C (stereo not shown)
Outgoing: 19

Incoming: // % Inhibition lookup, key: N=C(N)c1ccc(-c2cc3ccc(C(=N)N)cc3[nH]2)cc1
Outgoing: 53

Incoming: // % Inhibition lookup, key: Nc1nc(N)c2c(Sc3ccccc3)cccc2n1
Outgoing: 9

Incoming: // % Inhibition lookup, key: Fc1ccc2c(NN=Cc3ccc(Cl)cc3)ccnc2c1
Outgoing: 61

Incoming: // % Inhibition lookup, key: CCc1ccc(NC(=O)c2cccc(CN3CCCN(CC4CCCCC4)CC3)c2)cc1
Outgoing: -39

Numbers sourced from paper PMC4552634.
